Where do the numbers come from? From PubChem BioAssay (NCATS).

Assay: qHTS Assay for Lipid Storage Modulators (AID 1519)
Settings: Drosophila S3 cells, BODIPY lipid droplet/cell ratio, laser cytometry; measured here: lipid channel max response; cells loaded with oleic acid
Results filed as inconclusive are left out.
measured property: max response

{"molecule": "CN1C2CC3CC1C(O3)C2O (stereo not drawn)", "observed measurement": "-5.52%"}
{"molecule": "c1ccc(CN2CCCC3(CCNCC3)C2)cc1", "observed measurement": "7.81%"}
{"molecule": "Cc1nc2cnc(N3CCNCC3)nc2n(C)c1=O", "observed measurement": "25.8%"}
{"molecule": "CC(=O)OC1CC2C(C)(C)C(O)C=C[C@@]2(C)C2CC[C@]3(C)C(=CC(=O)OC3c3ccoc3)[C@]12C (stereo partly drawn)", "observed measurement": "6.06%"}
{"molecule": "COc1cc(CNC(=O)CCCC/C=C\\C(C)C)ccc1O", "observed measurement": "-21%"}
{"molecule": "COC1=C[C@H]2C3=C([C@H]2C1=O)[C@H](NC(C)=O)CCc1cc(OC)c(OC)c(OC)c13", "observed measurement": "2.18%"}
{"molecule": "CNC[C@H](O)c1ccc(O)cc1", "observed measurement": "-11.6%"}
{"molecule": "O=C(Oc1ccccc1)N1CCC2(CCCN(Cc3ccccc3)C2)CC1", "observed measurement": "4.78%"}
{"molecule": "ClC1=C(Cl)C2(Cl)C3C4CC(C5OC45)C3C1(Cl)C2(Cl)Cl (stereo not drawn)", "observed measurement": "15.6%"}
{"molecule": "CC(C)CC(CN)CC(=O)O (stereo not drawn)", "observed measurement": "26.2%"}
{"molecule": "CCCN(CCC)C(=O)Cc1c(-c2ccc(Cl)cc2)nc2c(Cl)cc(Cl)cn12", "observed measurement": "-20.1%"}
{"molecule": "O=C1CCCC2[C@@H]3CCCN4CCC[C@@H](CN12)C34 (stereo partly drawn)", "observed measurement": "7.09%"}
{"molecule": "CC(C)C[C@H]1C(=O)N2CCCC2[C@]2(O)O[C@](NC(=O)[C@@H]3C=C4c5cccc6[nH]c(Br)c(c56)C[C@H]4N(C)C3)(C(C)C)C(=O)N12 (stereo partly drawn)", "observed measurement": "-33.2%"}
{"molecule": "NC(Cn1ccc(=O)[nH]c1=O)C(=O)O (stereo not drawn)", "observed measurement": "-23.6%"}
{"molecule": "CN1CCC2(CC1)CCN(C(=O)Oc1ccccc1)CC2", "observed measurement": "7.31%"}
{"molecule": "CC(C)c1ccc2c(c1O)CCC1C3=C(CC[C@]21C)C(=O)OC3 (stereo partly drawn)", "observed measurement": "-0.042%"}
{"molecule": "c1ccc(N=Nc2ccccc2)cc1", "observed measurement": "-24.4%"}
{"molecule": "COc1ccc2c(c1OC)CN1CCc3cc4c(cc3[C@H]1C2)OCO4", "observed measurement": "-19%"}
{"molecule": "C[C@@]12CC[C@H](O)C[C@@H]1CC[C@H]1[C@@H]2C[C@@H](O)[C@]2(C)[C@@H](C3=CC(=O)OC3)CC[C@]12O", "observed measurement": "-9.41%"}
{"molecule": "N#Cc1ccc(CN2CCCC3(CCN(C(=O)Oc4ccccc4)CC3)C2)cc1", "observed measurement": "16.3%"}
{"molecule": "CNC(=O)O/N=C/C(C)(C)SC", "observed measurement": "23.9%"}
{"molecule": "c1ccc(N2CCCC3(CCNCC3)C2)cc1", "observed measurement": "14.8%"}
{"molecule": "CS(=N)(=O)CC[C@@H](N)C(=O)O (stereo partly drawn)", "observed measurement": "16%"}

----------
Test: Primary qHTS for inhibitors of MERS-S pseudo-typed particle cell entry (AID 1479149); note: nearly all actives have a fitted effect of over 60% in size
Settings: MERS-S pseudotyped particle entry, luciferase; series mostly up to 57.1 µM
Records with an inconclusive call do not appear. The source made the active and inactive calls. Calls follow the shape of the full dose curve.

{"molecule": "CN[C@H]1C[C@@H](N)[C@H](O)[C@@H](O[C@@H]2O[C@H](CO)[C@H](O)[C@@H]3OC4(O[C@H]23)O[C@H]([C@@H](N)CO)[C@H](O)[C@H](O)[C@H]4O)[C@@H]1O (stereo partly specified)", "outcome": "inactive"}
{"molecule": "C/C(=C(/CCO)SSCC1CCCO1)N(C=O)Cc1cnc(C)nc1N (stereo unspecified)", "outcome": "inactive"}
{"molecule": "CNC(=O)OCc1cccc(COC(=O)NC)n1", "outcome": "inactive"}
{"molecule": "CCCCCCCCCCCCCCCC(=O)OCC(=O)[C@@]1(O)[C@H](C)C[C@H]2[C@@H]3CCC4=CC(=O)C=C[C@]4(C)[C@@]3(F)[C@@H](O)C[C@@]21C", "outcome": "inactive"}
{"molecule": "C=CCN1CC[C@]23c4c5ccc(O)c4O[C@H]2[C@@H](OCCOCCOCCOCCOCCOCCOCCOC)CC[C@@]3(O)[C@H]1C5", "outcome": "inactive"}
{"molecule": "CC(C)C[C@H](NC(=O)[C@@H](COC(C)(C)C)NC(=O)[C@H](Cc1ccc(O)cc1)NC(=O)[C@H](CO)NC(=O)[C@H](Cc1c[nH]c2ccccc12)NC(=O)[C@H](Cc1cnc[nH]1)NC(=O)[C@@H]1CCC(=O)N1)C(=O)N[C@@H](CCCN=C(N)N)C(=O)N1CCC[C@H]1C(=O)NNC(N)=O", "outcome": "inactive"}

----------
Assay: qHTS for activators of dead-cell proteases activity screened against the NCATS CANVASS Library (AID 1347392);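 note: luminescence from protease leaking out of membrane-damaged cells cleaving impermeant substrate; 0% is about no effect; rising signal means more cytotoxicity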
Conditions: HepG2 cytotoxicity, dead-cell protease luminescence, 5 h; series mostly up to 46.1 µM
Inconclusive results are not listed. Calls of active or inactive are those of the source. Calls follow the shape of the dose curve; as a rule, active = well fitted curve in the direction sought with a large enough effect; inconclusive = small, poorly fitted or top-dose-only effect, or another doubt; inactive = no such curve, though single readings can be large or run the other way.

{"compound": "C=CC(C)(C)[C@@]12C[C@H]3C(=O)N/C(=C/c4cnc[nH]4)C(=O)N3[C@@H]1Nc1ccccc12", "outcome": "inactive"}
{"compound": "C/C(=C\\[C@H](C)C(=O)C[C@H](O)CC1CC(=O)NC(=O)C1)[C@@H]1OC(=O)/C=C/CC/C=C/C=C/[C@@H]1C", "outcome": "inactive"}
{"compound": "CC[C@@H]1CN2CCc3c([nH]c4cccc(OC)c34)[C@@H]2C[C@@H]1/C(=C\\OC)C(=O)OC", "outcome": "inactive"}

----------
Assay: qHTS for differential inhibitors of proliferation of Plasmodium falciparum line HB3 (AID 1886);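 note: parasites grown with compound for 72 h before SYBR Green readout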
Conditions: Plasmodium falciparum HB3 proliferation inhibition; series mostly up to 28.7 µM
Results filed as inconclusive are left out. Active and inactive are the calls of the source. Calls follow the shape of the dose curve; as a rule, active = well fitted curve in the direction sought with a large enough effect; inconclusive = small, poorly fitted or top-dose-only effect, or another doubt; inactive = no such curve, though single readings can be large or run the other way.
Possible outcomes: T = active, F = inactive

{"compound": "Nc1ncnc2c1ncn2[C@@H]1O[C@H](COP(=O)(O)CP(=O)(O)OP(=O)(O)O)[C@H](O)[C@H]1O", "label value": "F"}
{"compound": "CCc1c(C(=O)OC)ncc2[nH]c3cc(OC)c(OC)cc3c12", "label value": "T"}
{"compound": "CN1CCC23CCCC[C@H]2C1Cc1ccc(O)cc13 (stereo not given in full)", "label value": "F"}
{"compound": "C[C@]12CC[C@H](OS(=O)(=O)O)CC1=CCC1C2CC[C@]2(C)C(=O)CC[C@@H]12 (stereo not given in full)", "label value": "F"}
{"compound": "CCN(CC)C(=O)N[C@@H]1C[C@@H]2c3cccc4[nH]cc(c34)C[C@H]2N(C)C1", "label value": "T"}
{"compound": "C=CCN1CCc2cccc3c2C1Cc1ccc(O)c(O)c1-3 (stereo not given)", "label value": "T"}
{"compound": "CCNC(=O)[C@H]1O[C@@H](n2cnc3c(N)ncnc32)[C@H](O)[C@H]1O", "label value": "F"}
{"compound": "COc1ccc2c(c1O)-c1cccc3c1C(C2)N(C)CC3 (stereo not given)", "label value": "T"}
{"compound": "Oc1cc2c(cc1O)[C@H]1c3ccccc3CNC1CC2 (stereo not given in full)", "label value": "T"}
{"compound": "O=C(OC1CCN(CCCl)CC1)C(c1ccccc1)c1ccccc1", "label value": "T"}

----------
Experiment: qHTS assay for small molecule antagonists of retinoid X receptor alpha signaling (AID 588546);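 note: cells stimulated with 9-cis-retinoic acid as agonist; % is set by controls: 0 for no effect and ±100 for the full control effect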
Conditions: HEK293T RXRa-UAS-bla, beta-lactamase ratio, antagonist mode; measured here: W530 green channel, cytotoxicity proxy
Results filed as inconclusive are left out.
# key: entry, value: max response

{"compound": "C1CCC2CCCCC2C1 (configuration not stated)", "max response [%]": -2.39}
{"compound": "CNC(=O)CSP(=S)(OC)OC", "max response [%]": 1.7}
{"compound": "COC1=CC(=O)OC(CCc2ccccc2)C1 (configuration not stated)", "max response [%]": -2.34}
{"compound": "Cc1ccc2ccccc2c1", "max response [%]": -12.4}
{"compound": "ClCBr", "max response [%]": -9.96}
{"compound": "CCCCOC(=O)c1ccccc1C(=O)OCCCC", "max response [%]": -3.09}
{"compound": "C=CCc1ccc2c(c1)OCO2", "max response [%]": -5.37}
{"compound": "C=CCOC(C)=O", "max response [%]": -2.08}
{"compound": "Nc1ccccc1Cl", "max response [%]": -3.04}
{"compound": "CCSC(=O)Cl", "max response [%]": -5.71}
{"compound": "CC(C)(C)OOC(C)(C)C", "max response [%]": -12.4}
{"compound": "ClC1=C(Cl)C2(Cl)C3C4C=CC(C4)C3C1(Cl)C2(Cl)Cl (configuration not stated)", "max response [%]": -0.359}
{"compound": "CC(C)N1C(=O)c2ccccc2NS1(=O)=O", "max response [%]": -4.57}
{"compound": "O=NN(CCO)CCO", "max response [%]": -0.955}
{"compound": "c1ccc2c(c1)CCCC2", "max response [%]": -8.06}
{"compound": "CNC(=O)Oc1ccccc1OC(C)C", "max response [%]": -6.53}
{"compound": "O=C(O)C1C2CCC(O2)C1C(=O)O (configuration not stated)", "max response [%]": -24.5}
